- Measured On: CYP2C19 (Homo sapiens (Human))
- Assay Protocol: Cytochrome P450 activity inhibition, CYP2C19
- Type: in vitro ADME
- Measurement Context: 10 μM, human liver microsomes
Measured Quantity: CYP inhibition (% of control) 2C19

Completed entries (count: 3):
CCN1CCC(c2ccc(C(=C(CCCO)c3ccccc3)c3cccc(O)c3)cc2)CC1 [Compound 22ae]    >100 % of control
CN1CCN(c2ccc(/C(=C(/CCCO)c3ccccc3)c3ccc([N+](=O)[O-])cc3)cc2)CC1 [Compound 18c]    80 % of control
OCCC/C(=C(\c1ccc(O)cc1)c1ccc(OCCN2C[C@H]3C[C@H]3[C@H]2CO)cc1)c1ccccc1 [Compound 38d]    58.8 % of control

Pending compound:
Ask: Tell me measured CYP inhibition (% of control) 2C19 for CC(C)N1CCC(c2ccc(/C(=C(/CCCO)c3ccccc3)c3cccc(O)c3)cc2)CC1 [Compound 22h] please.
Reply: >100 % of control

###

- Measured On: CYP1A2 (Homo sapiens (Human))
- Sequence (P05177 whole entry): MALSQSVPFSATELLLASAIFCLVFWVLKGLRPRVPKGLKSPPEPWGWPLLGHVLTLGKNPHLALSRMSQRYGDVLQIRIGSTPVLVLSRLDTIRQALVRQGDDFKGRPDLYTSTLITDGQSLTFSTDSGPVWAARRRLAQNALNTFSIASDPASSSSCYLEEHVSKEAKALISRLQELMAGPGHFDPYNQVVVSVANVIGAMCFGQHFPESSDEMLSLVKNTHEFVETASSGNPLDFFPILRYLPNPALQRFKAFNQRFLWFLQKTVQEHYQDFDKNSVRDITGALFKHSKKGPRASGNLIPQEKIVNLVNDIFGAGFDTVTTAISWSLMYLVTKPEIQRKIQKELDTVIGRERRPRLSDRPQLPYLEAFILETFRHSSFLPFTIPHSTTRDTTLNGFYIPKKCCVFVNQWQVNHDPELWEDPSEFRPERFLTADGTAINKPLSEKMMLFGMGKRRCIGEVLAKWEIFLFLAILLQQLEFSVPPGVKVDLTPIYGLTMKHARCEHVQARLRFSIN
- Assay Protocol: Cytochrome P450 activity inhibition, CYP1A2
- Type: in vitro ADME
- Measurement Context: 10 μM, human liver microsomes
CYP inhibition (% of control) 1A2 listing for selected molecules.

Completed entries (count: 5):
CN(C)CCOc1ccc(/C(=C(/CCCO)c2ccccc2)c2ccc(O)cc2)cc1 [GSK5182, reference compound]    84.6 % of control
CN1CCC(c2ccc(/C(=C(/CCCO)c3ccccc3)c3cccc(O)c3)cc2)CC1 [Compound 22ac]    >100 % of control
Cc1ccc(/C(=C(\CCCO)c2ccccc2)c2ccc(N3CCN(C)CC3)cc2)cc1 [Compound 18f]    >100 % of control
CN1CCN(c2ccc(/C(=C(/CCCO)c3ccccc3)c3ccc(O)cc3)cc2)CC1 [Compound 18d]    88 % of control
CN1CCCC1CCOc1ccc(/C(=C(/CCCO)c2ccccc2)c2ccc(Br)cc2)cc1 (stereo not shown) [Compound 13d]    >100 % of control

Ask: Find CYP inhibition (% of control) 1A2 for CN1CCN(c2ccc(/C(=C(/CCCO)c3ccccc3)c3ccc(Br)cc3)cc2)CC1 [Compound 18e] on CYP1A2 (Homo sapiens (Human)) and write it down.
Reply: >100 % of control

Ask: Find CYP inhibition (% of control) 1A2 for OCCC/C(=C(\c1ccc(O)cc1)c1ccc(OCCN2CCCC2)cc1)c1ccccc1 [Compound 6e] on CYP1A2 (Homo sapiens (Human)) and write it down.
Reply: 79.6 % of control

Ask: Find CYP inhibition (% of control) 1A2 for CN1CCC[C@@H]1COc1ccc(/C(=C(/CCCO)c2ccccc2)c2ccc(O)cc2)cc1 [Compound 6i] on CYP1A2 (Homo sapiens (Human)) and write it down.
Reply: 98.1 % of control

Ask: Find CYP inhibition (% of control) 1A2 for CC(C)N1CCC(c2ccc(/C(=C(/CCCO)c3ccccc3)c3ccc(O)cc3)cc2)CC1 [Compound 22k] on CYP1A2 (Homo sapiens (Human)) and write it down.
Reply: >100 % of control

Ask: Find CYP inhibition (% of control) 1A2 for CC(C)N1CCC(c2ccc(/C(=C(/CCCO)c3ccccc3)c3cccc(O)c3)cc2)CC1 [Compound 22m] on CYP1A2 (Homo sapiens (Human)) and write it down.
Reply: 97 % of control

###

- Measured On: CYP2C19 (Homo sapiens (Human), UniProt P33261)
- Sequence (P33261 whole entry): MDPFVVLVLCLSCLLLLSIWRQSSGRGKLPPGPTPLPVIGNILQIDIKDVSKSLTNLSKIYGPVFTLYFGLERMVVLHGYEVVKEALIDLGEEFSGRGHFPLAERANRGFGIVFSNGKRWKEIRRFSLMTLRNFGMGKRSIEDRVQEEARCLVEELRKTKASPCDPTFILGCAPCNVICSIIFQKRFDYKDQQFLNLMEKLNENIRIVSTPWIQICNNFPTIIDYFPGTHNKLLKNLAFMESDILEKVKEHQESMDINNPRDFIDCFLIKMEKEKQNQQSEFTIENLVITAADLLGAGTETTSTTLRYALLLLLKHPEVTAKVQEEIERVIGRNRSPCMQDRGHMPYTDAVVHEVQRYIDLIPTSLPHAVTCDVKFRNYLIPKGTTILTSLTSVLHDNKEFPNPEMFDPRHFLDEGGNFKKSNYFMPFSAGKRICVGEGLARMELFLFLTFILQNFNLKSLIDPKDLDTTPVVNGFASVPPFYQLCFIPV
- Assay Protocol: Cytochrome P450 activity inhibition, CYP2C19
- Format: in vitro ADME
- Measurement Context: 10 μM, human liver microsomes
CYP inhibition (% of control) 2C19 listing for selected molecules.

OCCC/C(=C(\c1ccc(O)cc1)c1ccc(C2CN(C3CC3)C2)cc1)c1ccccc1 [Compound 22d]    >100 % of control
Nc1ccc(/C(=C(\CCCO)c2ccccc2)c2ccc(C3CCN(C4CC4)CC3)cc2)cc1 [Compound 26d]    >100 % of control
CN(C)CCOc1ccc(/C(=C(/CCCO)c2ccccc2)c2ccc(O)cc2)cc1 [GSK5182, reference compound]    78.2 % of control
OCCC/C(=C(\c1ccc(Br)cc1)c1ccc(N2CCNCC2)cc1)c1ccccc1 [Compound 20a]    61.9 % of control

Ask: Tell me measured CYP inhibition (% of control) 2C19 for OCCC/C(=C(/c1ccc(C2=CCN(C3CC3)CC2)cc1)c1cccc(O)c1)c1ccccc1 [Compound 22l] please.
Reply: 97 % of control

Ask: Tell me measured CYP inhibition (% of control) 2C19 for OCCC/C(=C(\c1ccc(O)cc1)c1ccc(OCCN2CCOCC2)cc1)c1ccccc1 please.
Reply: 81.6 % of control

Ask: Tell me measured CYP inhibition (% of control) 2C19 for CCN1CCN(c2ccc(/C(=C(/CCCO)c3ccccc3)c3ccc(C)cc3)cc2)CC1 [Compound 18j] please.
Reply: 74 % of control

Ask: Tell me measured CYP inhibition (% of control) 2C19 for OCCC/C(=C(\c1ccc(O)cc1)c1ccc(OCCN2CCCC2)cc1)c1ccccc1 please.
Reply: 64.1 % of control

###

- Measured On: CYP2D6 (Homo sapiens (Human))
- Sequence (P10635 whole entry): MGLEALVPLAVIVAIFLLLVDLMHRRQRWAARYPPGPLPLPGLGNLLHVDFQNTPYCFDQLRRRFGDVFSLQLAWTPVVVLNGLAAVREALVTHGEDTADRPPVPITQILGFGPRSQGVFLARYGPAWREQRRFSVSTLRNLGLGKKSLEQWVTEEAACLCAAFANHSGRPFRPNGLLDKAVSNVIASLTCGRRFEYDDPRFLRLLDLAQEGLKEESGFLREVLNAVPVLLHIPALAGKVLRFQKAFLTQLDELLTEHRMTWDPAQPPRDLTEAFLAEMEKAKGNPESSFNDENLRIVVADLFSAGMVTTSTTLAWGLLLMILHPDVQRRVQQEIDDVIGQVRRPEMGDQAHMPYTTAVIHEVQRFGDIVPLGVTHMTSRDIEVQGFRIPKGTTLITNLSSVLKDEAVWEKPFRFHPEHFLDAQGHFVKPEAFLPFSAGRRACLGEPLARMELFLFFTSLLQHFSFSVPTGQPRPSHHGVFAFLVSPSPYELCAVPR
- Assay Protocol: Cytochrome P450 activity inhibition, CYP2D6
- Format: in vitro ADME
- Measurement Context: 10 μM, human liver microsomes
Measured Quantity: CYP inhibition (% of control) 2D6

CN1CCN(c2ccc(/C(=C(/CCCO)c3ccccc3)c3ccc(Br)cc3)cc2)CC1 [Compound 18e]    >100 % of control

Ask: Find CYP inhibition (% of control) 2D6 for OCCC/C(=C(\c1ccc(O)cc1)c1ccc(OCCN2C[C@H]3C[C@H]3[C@H]2CO)cc1)c1ccccc1 [Compound 38d] on CYP2D6 (Homo sapiens (Human)) and write it down.
Reply: 54.3 % of control

Ask: Find CYP inhibition (% of control) 2D6 for CN1CCC[C@@H]1COc1ccc(/C(=C(/CCCO)c2ccccc2)c2ccc(O)cc2)cc1 on CYP2D6 (Homo sapiens (Human)) and write it down.
Reply: 93.6 % of control

Ask: Find CYP inhibition (% of control) 2D6 for CN1CCC[C@H]1COc1ccc(/C(=C(/CCCO)c2ccccc2)c2ccc(O)cc2)cc1 on CYP2D6 (Homo sapiens (Human)) and write it down.
Reply: 90.7 % of control

Ask: Find CYP inhibition (% of control) 2D6 for OCCC/C(=C(\c1ccc(Br)cc1)c1ccc(N2CCNCC2)cc1)c1ccccc1 [Compound 20a] on CYP2D6 (Homo sapiens (Human)) and write it down.
Reply: 70.7 % of control

Ask: Find CYP inhibition (% of control) 2D6 for CN1CCCC1CCOc1ccc(/C(=C(/CCCO)c2ccccc2)c2ccc(O)cc2)cc1 (centres unmarked) on CYP2D6 (Homo sapiens (Human)) and write it down.
Reply: 81.7 % of control

Ask: Find CYP inhibition (% of control) 2D6 for CC(C)(C)OC(=O)N1CC(c2ccc(/C(=C(/CCCO)c3ccccc3)c3ccc(O)cc3)cc2)C1 [Compound 18t] on CYP2D6 (Homo sapiens (Human)) and write it down.
Reply: 98 % of control

Ask: Find CYP inhibition (% of control) 2D6 for OCCC/C(=C(\c1ccc(O)cc1)c1ccc(C2CCNCC2)cc1)c1ccccc1 [Compound 20j] on CYP2D6 (Homo sapiens (Human)) and write it down.
Reply: 89.3 % of control

###

- Measured On: CYP2C19 (Homo sapiens (Human), UniProt P33261)
- Assay Protocol: Cytochrome P450 activity inhibition, CYP2C19
- Format: in vitro ADME
- Measurement Context: 10 μM, human liver microsomes
Measured Quantity: CYP inhibition (% of control) 2C19

Completed entries (count: 3):
OCCC/C(=C(\c1ccc(O)cc1)c1ccc(C2CCN(C3CCCCC3)CC2)cc1)c1ccccc1 [Compound 22p]    61.5 % of control
CC(C)(C)OC(=O)N1CC(c2ccc(/C(=C(/CCCO)c3ccccc3)c3ccc(O)cc3)cc2)C1 [Compound 18t]    93 % of control
CN1CCC(c2ccc(/C(=C(/CCCO)c3ccccc3)c3cccc(O)c3)cc2)CC1 [Compound 22ac]    >100 % of control

Pending molecule:
Ask: Tell me measured CYP inhibition (% of control) 2C19 for CC(C)N1CCC(c2ccc(/C(=C(/CCCO)c3ccccc3)c3ccc(O)cc3)cc2)CC1 [Compound 22k] please.
Reply: >100 % of control

###

CYP inhibition (% of control) 1A2 listing for selected molecules.
- Measured On: CYP1A2 (Homo sapiens (Human))
- Assay Protocol: Cytochrome P450 activity inhibition, CYP1A2
- Type: in vitro ADME
- Measurement Context: 10 μM, human liver microsomes

CN1CCC[C@H]1COc1ccc(/C(=C(/CCCO)c2ccccc2)c2ccc(O)cc2)cc1 [Compound 6h]    103 % of control

Ask: Find CYP inhibition (% of control) 1A2 for OCCC/C(=C(\c1ccc(O)cc1)c1ccc(OCCN2CCOCC2)cc1)c1ccccc1 [Compound 6c] on CYP1A2 (Homo sapiens (Human)) and write it down.
Reply: 91.9 % of control

Ask: Find CYP inhibition (% of control) 1A2 for CC(C)N1CCN(c2ccc(C(=C(CCCO)c3ccccc3)c3ccc(O)cc3)cc2)CC1 [Compound 18a] on CYP1A2 (Homo sapiens (Human)) and write it down.
Reply: 88 % of control

Ask: Find CYP inhibition (% of control) 1A2 for CC(C)(C)OC(=O)N1CC(c2ccc(/C(=C(/CCCO)c3ccccc3)c3ccc(O)cc3)cc2)C1 [Compound 18t] on CYP1A2 (Homo sapiens (Human)) and write it down.
Reply: 100 % of control

Ask: Find CYP inhibition (% of control) 1A2 for CN1CCN(c2ccc(/C(=C(/CCCO)c3ccccc3)c3ccc(N)cc3)cc2)CC1 [Compound 26a] on CYP1A2 (Homo sapiens (Human)) and write it down.
Reply: >100 % of control

Ask: Find CYP inhibition (% of control) 1A2 for OCCC/C(=C(\c1ccc(O)cc1)c1ccc(C2CCN(C3CCCCC3)CC2)cc1)c1ccccc1 [Compound 22p] on CYP1A2 (Homo sapiens (Human)) and write it down.
Reply: 88.1 % of control

The measurements presented in this section are drawn from patent US11285226B2.
